# SYSTEM: Human CB1 receptor (hCB1) (Homo sapiens, UniProt P21554)
# Sequence (P21554 whole entry): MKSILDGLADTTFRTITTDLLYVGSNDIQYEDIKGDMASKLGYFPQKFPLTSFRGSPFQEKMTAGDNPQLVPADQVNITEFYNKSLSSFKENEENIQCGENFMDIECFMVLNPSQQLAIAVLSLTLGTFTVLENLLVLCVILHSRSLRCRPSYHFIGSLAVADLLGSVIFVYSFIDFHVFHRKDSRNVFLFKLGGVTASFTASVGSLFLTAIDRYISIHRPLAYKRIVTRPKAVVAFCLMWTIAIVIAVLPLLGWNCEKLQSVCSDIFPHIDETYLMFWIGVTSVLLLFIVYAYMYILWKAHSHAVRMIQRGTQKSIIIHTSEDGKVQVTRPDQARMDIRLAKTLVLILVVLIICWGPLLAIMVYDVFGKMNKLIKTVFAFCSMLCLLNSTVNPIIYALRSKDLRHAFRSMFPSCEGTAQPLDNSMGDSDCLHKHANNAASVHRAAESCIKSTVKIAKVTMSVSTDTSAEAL
pKi: −log10 of the molar value.
MEASURED PROPERTY: pKi

>>> assay_result("Cn1c2c(c3cc(C(=O)N4CCC(C(=O)NCCF)C4)ccc31)CC(C1CCOCC1)CC2 (stereo not shown)")
6.90
>>> assay_result("CCN(CC(=O)NC1CC1)C(=O)c1ccc2c(c1)c1c(n2CC2CC2)CCC(C2CCOCC2)C1 (stereo not shown)")
7.67
>>> assay_result("CCNC(=O)CN(CC)C(=O)c1ccc2c(c1)c1c(n2CCF)CCC(C2CCOCC2)C1 (stereo not shown)")
6.69
>>> assay_result("CCS(=O)(=O)n1c2c(c3cc(C(=O)N(C)CC(=O)NC4CC4)ccc31)CC(C1CCOCC1)CC2 (stereo not shown)")
7.74
>>> assay_result("Cn1c2c(c3cc(C(=O)N4CC[C@H](C(=O)NCCF)C4)ccc31)CC(C1CCOCC1)CC2 (stereo partly shown)")
7.52
>>> assay_result("Cn1c2c(c3cc(C(=O)N4CCCC(C(=O)NC5CC5)C4)ccc31)CC(C1CCOCC1)CC2 (stereo not shown)")
7.49

Reference source: patent US20090062251A1
